Test system: H1 human embryonic stem cells
Experiment: Secondary assay: panel of compounds with growth factor combinations and muscimol, no activin A (Example 6, Table 5)
Format: cell-based
Details: no AA (with Wnt3a); EGF + FGF4 + PDGF-AB
Each entry below carries its recorded Sox17 Expression, Average Total Intensity.
Experimental readout: Sox17 Expression, Average Total Intensity

>  <Compound>
O=C1NCCCc2cncc(c2)-c2ncnc(n2)Nc2cccc(c2)CN2CCCC1C2 (stereo not shown) [Compound 17]

>  <Test result>
9.30E+05

$$$$
>  <Compound>
O=C1NCCCc2cncc(c2)-c2ncnc(n2)Nc2cc(Cl)cc(c2)CN2CCCC1C2 (stereo not shown) [Compound 37]

>  <Test result>
−2.61E+06

$$$$
>  <Compound>
O=C1NCCCc2cncc(c2)-c2ncnc(n2)Nc2cccc(c2)CN2CCC1CC2 [Compound 22]

>  <Test result>
8.60E+06

$$$$
>  <Compound>
CCN1CCCc2cccc(c2)-c2ncnc(n2)Nc2cccc(c2)CCNC(=O)C1 [Compound 29]

>  <Test result>
−7.52E+06

$$$$
>  <Compound>
CN1CCC(=O)NCCCNc2ncccc2-c2ncnc(n2)Nc2cccc(c2)C1 [Compound 39]

>  <Test result>
1.62E+06

$$$$
>  <Compound>
CCN1CC(=O)NCCCc2cncc(c2)-c2ncnc(n2)Nc2cc(Cl)cc(c2)C1 [Compound 35]

>  <Test result>
1.28E+07

$$$$
>  <Compound>
O=C1CCN2CCN(CC2)Cc2cc(Cl)cc(c2)Nc2ncnc(n2)-c2cncc(c2)CCCN1 [Compound 34]

>  <Test result>
1.09E+08

$$$$
